- Test Method Notes: Permeability coefficient through artificial membrane in presence of stirred water layer
- Assay Conditions: PAMPA
Output y for Papp not less than 30 ×10⁻⁶ cm/s; output n otherwise.

- CN1CCN(CC(=O)N2c3ccccc3C(=O)Nc3cccnc32)CC1 [PIRENZEPINE]: n
- COCCc1ccc(OCC(O)CNC(C)C)cc1 (stereo not drawn) [METOPROLOL]: n
- O=C1NC(=O)C(c2ccccc2)(c2ccccc2)N1 [PHENYTOIN]: n
- Nc1ccccc1[N+](=O)[O-] [2-NITROANILINE]: y
- CC(C)(C)NCC(O)COc1cccc2c1C[C@H](O)[C@H](O)C2 (stereo partly drawn) [NADOLOL]: y
- Nc1cccc(Cl)c1 [3-CHLOROANILINE]: y
- Oc1ccc(O)cc1 [HYDROQUINONE]: n
- CC(C)OP(=O)(OC(C)C)SCc1ccccc1 [IPROBENFOS]: y
- Cc1ccc(O)c(C)c1: y
- CCN(CC)C(=O)SCc1ccc(Cl)cc1 [THIOBENCARB]: y
- CC(CCc1ccccc1)NCC(O)c1ccc(O)c(C(N)=O)c1 (stereo not drawn) [LABETALOL]: n
- CC(=O)Nc1ccc(OCC(O)CNC(C)C)cc1 (stereo not drawn) [PRACTOLOL]: n
- CC(C)NCC(O)COc1cccc2[nH]ccc12 (stereo not drawn) [PINDOLOL]: n
- C[C@]12C[C@H](O)[C@H]3[C@@H](CCC4=CC(=O)CC[C@@]43C)[C@@H]1CC[C@@H]2C(=O)CO [CORTICOSTERONE]: y
- COc1nn(CSP(=S)(OC)OC)c(=O)s1 [METHIDATHION]: y
- Oc1ccccc1Cl [2-CHLOROPHENOL]: n
- O=[N+]([O-])c1cccc(O)c1 [3-NITRO-PHENOL]: y
- COC(=O)c1ccccc1C(=O)OC [DIMETHYL PHTHALATE]: y
- Nc1ccccc1 [ANILINE]: y
- CCNc1nc(Cl)nc(NC(C)C)n1 [ATRAZINE]: y
- Clc1cccc(Cl)c1N=C1NCCN1 [CLONIDINE]: n
- CNC(=C[N+](=O)[O-])NCCSCc1ccc(CN(C)C)o1 [RANITIDINE]: n
- CN1C(C(=O)Nc2ccccn2)=C(O)c2ccccc2S1(=O)=O [PIROXICAM]: n

====

In this section we review reported logPm values for a set of molecules.
- Test Method Notes: Intrinsic artificial membrane permeability coefficient, log P0 of the compound
- Format: ADME
Quantity Name: logPm

• CC(C)Cc1ccc(C(C)C(=O)O)cc1 (configuration not stated) [IBUPROFEN] = -1.15
• O=C(O)c1ccccc1O [SALICYLIC ACID] = -3.46
• CN1C(C(=O)Nc2ccccn2)=C(O)c2ccccc2S1(=O)=O [PIROXICAM] = -2.08
• COc1ccc([C@@H]2Sc3ccccc3N(CCN(C)C)C(=O)[C@@H]2OC(C)=O)cc1 [DILTIAZEM] = -1.85
• C=CCc1ccccc1OCC(O)CNC(C)C (configuration not stated) [ALPRENOLOL] = -1.02
• CC(C(=O)O)c1cccc(C(=O)c2ccccc2)c1 (configuration not stated) [KETOPROFEN] = -2.43
• COCCc1ccc(OCC(O)CNC(C)C)cc1 (configuration not stated) [METOPROLOL] = -1.75
